biological target: human GCG receptor (human, UniProt P47871 26-477); assay: cell-based or functional assay
Sequence (P47871 26-477): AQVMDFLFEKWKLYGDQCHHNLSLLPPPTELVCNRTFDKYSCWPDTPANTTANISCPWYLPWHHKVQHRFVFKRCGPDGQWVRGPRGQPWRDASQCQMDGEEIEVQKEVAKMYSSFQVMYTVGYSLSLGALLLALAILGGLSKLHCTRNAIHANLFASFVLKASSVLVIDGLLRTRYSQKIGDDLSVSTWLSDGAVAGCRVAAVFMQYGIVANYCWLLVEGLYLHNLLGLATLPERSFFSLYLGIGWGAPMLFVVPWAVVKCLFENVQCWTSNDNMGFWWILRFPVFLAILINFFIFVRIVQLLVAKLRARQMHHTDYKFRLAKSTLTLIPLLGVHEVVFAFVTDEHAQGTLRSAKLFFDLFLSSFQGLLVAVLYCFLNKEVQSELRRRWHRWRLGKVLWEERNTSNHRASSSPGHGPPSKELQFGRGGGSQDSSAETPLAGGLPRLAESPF
Bridges are numbered along the chain shown (N, C = ends). Where no end group is shown, it is not given here. [ ]: non-standard residue; d: D form. The star is where a group is joined. Acetyl(2-(4-imidazolyl)) = O=C(Cc1c[nH]cn1)*; Aib = CC(C)(N)C(=O)O
Define the label as 1.0 when In vitro activity relative to native peptide (%) vs. Glucagon is strictly less than 6% and as 0.0 in all remaining cases.

Solved entries:
[
  {
    "binder": "{Acetyl(2-(4-imidazolyl))}-[Aib]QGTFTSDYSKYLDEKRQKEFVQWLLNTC (bridge 15-19) [triple agonist of SEQ ID NO: 81]",
    "label class": 1.0
  },
  {
    "binder": "H[Aib]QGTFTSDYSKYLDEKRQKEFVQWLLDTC (bridge 16-20) [triple agonist of SEQ ID NO: 52]",
    "label class": 0.0
  },
  {
    "binder": "{Acetyl(2-(4-imidazolyl))}-[Aib]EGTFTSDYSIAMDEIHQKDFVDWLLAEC (bridge 15-19) [triple agonist of SEQ ID NO: 84]",
    "label class": 1.0
  },
  {
    "binder": "Y[Aib]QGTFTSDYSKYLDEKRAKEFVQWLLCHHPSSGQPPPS (bridge 16-20) [triple agonist of SEQ ID NO: 95]",
    "label class": 1.0
  },
  {
    "binder": "{Acetyl(2-(4-imidazolyl))}-[Aib]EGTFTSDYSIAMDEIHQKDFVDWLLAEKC (bridge 15-19) [triple agonist of SEQ ID NO: 91]",
    "label class": 0.0
  },
  {
    "binder": "Y[Aib]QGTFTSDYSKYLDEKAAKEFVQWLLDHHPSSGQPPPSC (bridge 16-20) [triple agonist of SEQ ID NO: 75]",
    "label class": 0.0
  }
]

### Prompt Find out if reported In vitro activity relative to native peptide (%) vs. Glucagon for H[Aib]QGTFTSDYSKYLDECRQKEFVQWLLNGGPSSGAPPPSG (bridge 16-20) [triple agonist of SEQ ID NO: 37] is less than 6%
### Response 0.0

### Prompt Confirm or reject: In vitro activity relative to native peptide (%) vs. Glucagon of [Acetyl(2-(4-imidazolyl))][Aib]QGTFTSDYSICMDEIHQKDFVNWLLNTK (bridge 16-20; not fully specified) [triple agonist of SEQ ID NO: 49] lies strictly below 6%
### Response 1.0

### Prompt Is it true that In vitro activity relative to native peptide (%) vs. Glucagon reported for {Acetyl(2-(4-imidazolyl))}-[Aib]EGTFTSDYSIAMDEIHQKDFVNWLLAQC (bridge 15-19) [triple agonist of SEQ ID NO: 83] is less than 6%?
### Response 1.0

### Prompt Check if In vitro activity relative to native peptide (%) vs. Glucagon falls below 6% for H[Aib]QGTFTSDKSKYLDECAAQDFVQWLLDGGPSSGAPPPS [triple agonist of SEQ ID NO: 41] .
### Response 1.0

### Prompt Criterion: In vitro activity relative to native peptide (%) vs. Glucagon strictly below 6%. Is it met by [Acetyl(2-(4-imidazolyl))]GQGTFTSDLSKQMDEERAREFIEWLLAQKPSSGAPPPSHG [triple agonist of SEQ ID NO: 17] ?
### Response 1.0

### Prompt State whether 6% exceeds In vitro activity relative to native peptide (%) vs. Glucagon recorded for [Acetyl(2-(4-imidazolyl))][Aib]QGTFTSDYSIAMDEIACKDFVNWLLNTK (bridge 16-20; not fully specified) [triple agonist of SEQ ID NO: 61] .
### Response 1.0

### Prompt For this binder, is In vitro activity relative to native peptide (%) vs. Glucagon lower than 6%? Y[Aib]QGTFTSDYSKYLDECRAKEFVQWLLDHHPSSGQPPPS (bridge 16-20) [triple agonist of SEQ ID NO: 21]
### Response 0.0

### Prompt In the record for Y[Aib]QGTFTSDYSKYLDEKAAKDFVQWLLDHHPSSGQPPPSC (bridge 16-20) [triple agonist of SEQ ID NO: 77] , is In vitro activity relative to native peptide (%) vs. Glucagon less than 6%?
### Response 0.0

### Prompt # check: In vitro activity relative to native peptide (%) vs. Glucagon < 6% for [Acetyl(2-(4-imidazolyl))][Aib]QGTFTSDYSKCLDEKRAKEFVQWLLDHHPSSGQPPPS (bridge 16-20; not fully specified) [triple agonist of SEQ ID NO: 74]
### Response 1.0
